# Experimental Details: Stability of linkers L1-L4 conjugated to FGF21 (LC-MS)
# Assay type: physicochemical
# Cond: linker conjugated to FGF21ΔH-A129C, +4° C.; 168 hrs
Would you mind telling me the reported +(2) H2O (double hydrolysis) of each entry?
Answers are plain numbers, in %.

1) CC1=CC(=O)N(CC2CCC(C(=O)NCCOCCOCCC(=O)Nc3ccc(CCC(=O)N4CCC4=O)cc3)CC2)C1=O (stereo not shown) | 6

// for each compound below, give its +(2) H2O (double hydrolysis)
1. CC1=CC(=O)N(CCOCCOCCC(=O)Nc2ccc(CCC(=O)N3CCC3=O)cc2)C1=O
2. CC1=CC(=O)N(CCC(=O)NCCOCCOCCC(=O)Nc2ccc(CCC(=O)N3CCC3=O)cc2)C1=O

[8, 7]

# lookup: +(2) H2O (double hydrolysis) of O=C(CCN1C(=O)C=CC1=O)NCCOCCOCCC(=O)Nc1ccc(CCC(=O)N2CCC2=O)cc1 18

* * *

# Experimental Details: Stability of linkers L1-L4 conjugated to FGF21 (LC-MS)
# Format: physicochemical
# Cond: linker conjugated to FGF21ΔH-A129C, +4° C.; 24 hrs
Measured Parameter: +(2) H2O (double hydrolysis) (%)
Numbers only, in %.

// for each compound below, give its +(2) H2O (double hydrolysis)
1. CC1=CC(=O)N(CC2CCC(C(=O)NCCOCCOCCC(=O)Nc3ccc(CCC(=O)N4CCC4=O)cc3)CC2)C1=O (stereo not shown) [Compound L4]
2. CC1=CC(=O)N(CCC(=O)NCCOCCOCCC(=O)Nc2ccc(CCC(=O)N3CCC3=O)cc2)C1=O [Compound L2]
3. O=C(CCN1C(=O)C=CC1=O)NCCOCCOCCC(=O)Nc1ccc(CCC(=O)N2CCC2=O)cc1 [Compound L1]
4. CC1=CC(=O)N(CCOCCOCCC(=O)Nc2ccc(CCC(=O)N3CCC3=O)cc2)C1=O [Compound L3]

1: 7; 2: 8; 3: 11; 4: 8

* * *

# Experimental Details: Stability of linkers L1-L4 conjugated to FGF21 (LC-MS)
# Assay type: physicochemical
# Cond: linker conjugated to FGF21ΔH-A129C, +4° C.; 336 hrs
# Description: The following experiment was performed to investigate the chemical stability over 2 weeks of the four linkers upon conjugation to FGF21: each linker was conjugated to FGF21, placed at +4° C. storage conditions, and aliquots were removed and quenched by freezing at specific time points, and linker stability was monitored by LCMS analysis. The four linkers were dissolved in DMSO from lyophilized stock material. […] L1 was reacted with protein for 30 mins; L2, L3 and L4 were reacted for 2 hrs. […]
Would you mind telling me the reported 0 linker (unconjugated protein) of each entry?
One number for each entry, in %.

1) CC1=CC(=O)N(CC2CCC(C(=O)NCCOCCOCCC(=O)Nc3ccc(CCC(=O)N4CCC4=O)cc3)CC2)C1=O (stereo not shown) [Compound L4] | 22

// for each molecule below, give its 0 linker (unconjugated protein)
1. O=C(CCN1C(=O)C=CC1=O)NCCOCCOCCC(=O)Nc1ccc(CCC(=O)N2CCC2=O)cc1 [Compound L1]
2. CC1=CC(=O)N(CCC(=O)NCCOCCOCCC(=O)Nc2ccc(CCC(=O)N3CCC3=O)cc2)C1=O [Compound L2]
3. CC1=CC(=O)N(CCOCCOCCC(=O)Nc2ccc(CCC(=O)N3CCC3=O)cc2)C1=O [Compound L3]

1. 12
2. 26
3. 20

* * *

# Experimental Details: Stability of linkers L1-L4 conjugated to FGF21 (LC-MS)
# Format: physicochemical
# Cond: linker conjugated to FGF21ΔH-A129C, +4° C.; 24 hrs
Measured Parameter: +(1) H2O (single hydrolysis) (%)
Answers are plain numbers, in %.

Please review the entries below; each comes with its answer.
1. CC1=CC(=O)N(CC2CCC(C(=O)NCCOCCOCCC(=O)Nc3ccc(CCC(=O)N4CCC4=O)cc3)CC2)C1=O (stereo not shown) [Compound L4] | 27
2. CC1=CC(=O)N(CCOCCOCCC(=O)Nc2ccc(CCC(=O)N3CCC3=O)cc2)C1=O [Compound L3] | 27

// for each compound below, give its +(1) H2O (single hydrolysis)
1. O=C(CCN1C(=O)C=CC1=O)NCCOCCOCCC(=O)Nc1ccc(CCC(=O)N2CCC2=O)cc1 [Compound L1]
2. CC1=CC(=O)N(CCC(=O)NCCOCCOCCC(=O)Nc2ccc(CCC(=O)N3CCC3=O)cc2)C1=O [Compound L2]

34
26

* * *

# Experimental Details: Stability of linkers L1-L4 conjugated to FGF21 (LC-MS)
# Assay type: physicochemical
# Cond: linker conjugated to FGF21ΔH-A129C, +4° C.; 0 hrs
Would you mind telling me the reported +(1) H2O (single hydrolysis) of each entry?
Numbers only, in %.

Please review the entries below; each comes with its answer.
1. CC1=CC(=O)N(CC2CCC(C(=O)NCCOCCOCCC(=O)Nc3ccc(CCC(=O)N4CCC4=O)cc3)CC2)C1=O (stereo not shown) [Compound L4] | 28
2. CC1=CC(=O)N(CCC(=O)NCCOCCOCCC(=O)Nc2ccc(CCC(=O)N3CCC3=O)cc2)C1=O [Compound L2] | 27
3. O=C(CCN1C(=O)C=CC1=O)NCCOCCOCCC(=O)Nc1ccc(CCC(=O)N2CCC2=O)cc1 [Compound L1] | 30

# lookup: +(1) H2O (single hydrolysis) of CC1=CC(=O)N(CCOCCOCCC(=O)Nc2ccc(CCC(=O)N3CCC3=O)cc2)C1=O [Compound L3] 30

* * *

Would you mind telling me the reported 1 linker (protein+linker conjugation) of each entry?
# Experimental Details: Stability of linkers L1-L4 conjugated to FGF21 (LC-MS)
# Format: physicochemical
# Cond: linker conjugated to FGF21ΔH-A129C, +4° C.; 72 hrs
One number for each entry, in %.

Please review the entries below; each comes with its answer.
1) CC1=CC(=O)N(CCOCCOCCC(=O)Nc2ccc(CCC(=O)N3CCC3=O)cc2)C1=O [Compound L3] | 43
2) CC1=CC(=O)N(CCC(=O)NCCOCCOCCC(=O)Nc2ccc(CCC(=O)N3CCC3=O)cc2)C1=O [Compound L2] | 37
3) CC1=CC(=O)N(CC2CCC(C(=O)NCCOCCOCCC(=O)Nc3ccc(CCC(=O)N4CCC4=O)cc3)CC2)C1=O (stereo not shown) [Compound L4] | 42

# ---- query compound ----
# lookup: 1 linker (protein+linker conjugation) of O=C(CCN1C(=O)C=CC1=O)NCCOCCOCCC(=O)Nc1ccc(CCC(=O)N2CCC2=O)cc1 [Compound L1] 40

* * *

# Experimental Details: Stability of linkers L1-L4 conjugated to FGF21 (LC-MS)
# Type: physicochemical
# Cond: linker conjugated to FGF21ΔH-A129C, +4° C.; 72 hrs
Measured Parameter: +(2) H2O (double hydrolysis) (%)
One number for each entry, in %.

Please review the entries below; each comes with its answer.
1) CC1=CC(=O)N(CCC(=O)NCCOCCOCCC(=O)Nc2ccc(CCC(=O)N3CCC3=O)cc2)C1=O | 8
2) O=C(CCN1C(=O)C=CC1=O)NCCOCCOCCC(=O)Nc1ccc(CCC(=O)N2CCC2=O)cc1 | 11
3) CC1=CC(=O)N(CC2CCC(C(=O)NCCOCCOCCC(=O)Nc3ccc(CCC(=O)N4CCC4=O)cc3)CC2)C1=O (stereo not shown) | 7

# ---- query compound ----
# lookup: +(2) H2O (double hydrolysis) of CC1=CC(=O)N(CCOCCOCCC(=O)Nc2ccc(CCC(=O)N3CCC3=O)cc2)C1=O 8

* * *

Would you mind telling me the reported 1 linker (protein+linker conjugation) of each entry?
# Experimental Details: Stability of linkers L1-L4 conjugated to FGF21 (LC-MS)
# Format: physicochemical
# Cond: linker conjugated to FGF21ΔH-A129C, +4° C.; 336 hrs
Answer with the number, then the unit.

Please review the entries below; each comes with its answer.
1) CC1=CC(=O)N(CCOCCOCCC(=O)Nc2ccc(CCC(=O)N3CCC3=O)cc2)C1=O | 43%
2) CC1=CC(=O)N(CCC(=O)NCCOCCOCCC(=O)Nc2ccc(CCC(=O)N3CCC3=O)cc2)C1=O | 38%

# lookup: 1 linker (protein+linker conjugation) of O=C(CCN1C(=O)C=CC1=O)NCCOCCOCCC(=O)Nc1ccc(CCC(=O)N2CCC2=O)cc1 28%
